system: NCI-H1395; experiment: relative viability (nuclei count vs DMSO), 5 days (fraction); higher = more cells survive; settings: first compound 0.04 µM
Reported property: relative viability

- COc1cc(N2CCC(C(N)=O)CC2)ccc1Nc1nc(N)c(Cl)c(Nc2ccccc2S(=O)(=O)C(C)C)n1 [HG-5-88-01] + Nc1nc2[nH]cc(CCc3ccc(C(=O)N[C@@H](CCC(=O)O)C(=O)O)cc3)c2c(=O)[nH]1 [Pemetrexed] (partner 0.2 µM): 0.825
- Clc1ccc(Nc2nnc(Cc3ccncc3)c3ccccc23)cc1 [Vatalanib] + O=C(c1cc(Cc2n[nH]c(=O)c3ccccc23)ccc1F)N1CCN(C(=O)C2CC2)CC1 [Olaparib] (partner 8 µM): 0.448
- C[C@@H]1CN(CC(=O)Nc2ccc3c(c2)Cc2cccc(-c4cc(=O)cc(N5CCOCC5)o4)c2S3)C[C@H](C)O1 + COc1cccc2cc(-c3nc([C@H]4CC[C@H](C(=O)O)CC4)n4ncnc(N)c34)[nH]c12 [OSI-027] (partner 0.5 µM): 0.782
- COc1cc(N2CCC(C(N)=O)CC2)ccc1Nc1nc(N)c(Cl)c(Nc2ccccc2S(=O)(=O)C(C)C)n1 [HG-5-88-01] + Cc1nc(Nc2ncc(C(=O)Nc3c(C)cccc3Cl)s2)cc(N2CCN(CCO)CC2)n1 [Dasatinib] (partner 0.075 µM): 0.416
